The following are reported IC50 results, target or system Autotaxin (Homo sapiens).
assay.metric: IC50 (µM)

Some entries whose results are on file:
C[C@H](CCC(=O)N1CCc2nc(NCCc3c[nH]c4ccccc34)ncc2C1)[C@H]1CC[C@H]2[C@@H]3[C@@H](O)C[C@@H]4C[C@H](O)CC[C@]4(C)[C@H]3CC[C@]12C    0.335
C[C@H](CCC(=O)N1CCc2nc(NCCc3ccncc3)ncc2C1)[C@H]1CC[C@H]2[C@@H]3[C@@H](O)C[C@@H]4C[C@H](O)CC[C@]4(C)[C@H]3CC[C@]12C    0.0356
C[C@H](CCC(=O)N1Cc2cnc(NC3Cc4ccccc4C3)nc2C1)[C@H]1CC[C@H]2[C@@H]3[C@@H](O)C[C@@H]4C[C@H](O)CC[C@]4(C)[C@H]3CC[C@]12C    0.438

A: COc1ccc(CCNc2ncc3c(n2)CCN(C(=O)CC[C@@H](C)[C@H]2CC[C@H]4[C@@H]5[C@@H](O)C[C@@H]6C[C@H](O)CC[C@]6(C)[C@H]5CC[C@]24C)C3)cc1
B: C[C@H](CCC(=O)N1CCc2nc(NCCc3cccc(F)c3)ncc2C1)[C@H]1CC[C@H]2[C@@H]3[C@@H](O)C[C@@H]4C[C@H](O)CC[C@]4(C)[C@H]3CC[C@]12C
C: C[C@H](CCC(=O)N1CCc2nc(NC3Cc4ccccc4C3)ncc2C1)[C@H]1CC[C@H]2[C@@H]3[C@@H](O)C[C@@H]4C[C@H](O)CC[C@]4(C)[C@H]3CC[C@]12C
Ascending by IC50, please. Answer format: list of labels, ordered as asked. C, B, A
(C: 0.00762 µM, B: 0.0414 µM, A: 0.136 µM)

---

This document collects IC50 values reported for Autotaxin (Homo sapiens, UniProt Q13822).
assay.metric: IC50 (µM)

C[C@H](CCC(=O)N1CCc2nc(NCCc3cccc(Br)c3)ncc2C1)[C@H]1CC[C@H]2[C@@H]3[C@@H](O)C[C@@H]4C[C@H](O)CC[C@]4(C)[C@H]3CC[C@]12C    0.0277

I: C[C@H](CCC(=O)N1CCc2nc(NCc3ccc(Br)cc3)ncc2C1)[C@H]1CC[C@H]2[C@@H]3[C@@H](O)C[C@@H]4C[C@H](O)CC[C@]4(C)[C@H]3CC[C@]12C
II: C[C@H](CCC(=O)N1CCc2nc(N3CCC(c4ccccc4)CC3)ncc2C1)[C@H]1CC[C@H]2[C@@H]3[C@@H](O)C[C@@H]4C[C@H](O)CC[C@]4(C)[C@H]3CC[C@]12C
III: C[C@H](CCC(=O)N1CCc2nc(NCCCc3ccccc3)ncc2C1)[C@H]1CC[C@H]2[C@@H]3[C@@H](O)C[C@@H]4C[C@H](O)CC[C@]4(C)[C@H]3CC[C@]12C
Arrange the 3 entries by IC50 so the values rise. Present the labels in the sequence the task asks for. II, III, I
